- Test system: Trypanosoma brucei brucei
- assay.summary: WHO-TDR: Human African Trypanosomiasis (HAT)
- Assay type: functional, organism-based
- cond: Squib-427
IC50 values for the molecules below.

Known IC50 results, listed for orientation:
>>> reported("COc1ccc2nc(Nc3nc(-c4ccccn4)cs3)sc2c1")
"< 0.102 µg/mL"
>>> reported("COc1ccc(N2CCN(C(=O)c3csc(NC(=O)c4ccccc4)n3)CC2)cc1")
"> 12.7 µg/mL"
>>> reported("COc1cccc(C2C(S(=O)(=O)c3ccc(C)cc3)=C(O)C(=O)N2c2ccc(C)cc2)c1 (stereo unspecified)")
"> 13.5 µg/mL"
>>> reported("C=CCN(CC=C)S(=O)(=O)c1ccc(C(=O)Nc2nc3ccc(C(C)C)cc3s2)cc1")
"> 11 µg/mL"
>>> reported("CN(c1ccccc1)c1nnc(-c2ccc(NC(=O)Cc3cccs3)cc2)s1")
"> 12.2 µg/mL"

// below: IC50 requested for another molecule
Lookup: Name the recorded IC50 for `CS(=O)(=O)N1CCN(c2ccc(-c3ccccn3)nn2)CC1` .
Found: > 9.58 µg/mL
